# credit: patent US20220340597A1

Target Under Test: human TLR9 (Homo sapiens, UniProt Q9NR96)
Sequence (Q9NR96 26-1032): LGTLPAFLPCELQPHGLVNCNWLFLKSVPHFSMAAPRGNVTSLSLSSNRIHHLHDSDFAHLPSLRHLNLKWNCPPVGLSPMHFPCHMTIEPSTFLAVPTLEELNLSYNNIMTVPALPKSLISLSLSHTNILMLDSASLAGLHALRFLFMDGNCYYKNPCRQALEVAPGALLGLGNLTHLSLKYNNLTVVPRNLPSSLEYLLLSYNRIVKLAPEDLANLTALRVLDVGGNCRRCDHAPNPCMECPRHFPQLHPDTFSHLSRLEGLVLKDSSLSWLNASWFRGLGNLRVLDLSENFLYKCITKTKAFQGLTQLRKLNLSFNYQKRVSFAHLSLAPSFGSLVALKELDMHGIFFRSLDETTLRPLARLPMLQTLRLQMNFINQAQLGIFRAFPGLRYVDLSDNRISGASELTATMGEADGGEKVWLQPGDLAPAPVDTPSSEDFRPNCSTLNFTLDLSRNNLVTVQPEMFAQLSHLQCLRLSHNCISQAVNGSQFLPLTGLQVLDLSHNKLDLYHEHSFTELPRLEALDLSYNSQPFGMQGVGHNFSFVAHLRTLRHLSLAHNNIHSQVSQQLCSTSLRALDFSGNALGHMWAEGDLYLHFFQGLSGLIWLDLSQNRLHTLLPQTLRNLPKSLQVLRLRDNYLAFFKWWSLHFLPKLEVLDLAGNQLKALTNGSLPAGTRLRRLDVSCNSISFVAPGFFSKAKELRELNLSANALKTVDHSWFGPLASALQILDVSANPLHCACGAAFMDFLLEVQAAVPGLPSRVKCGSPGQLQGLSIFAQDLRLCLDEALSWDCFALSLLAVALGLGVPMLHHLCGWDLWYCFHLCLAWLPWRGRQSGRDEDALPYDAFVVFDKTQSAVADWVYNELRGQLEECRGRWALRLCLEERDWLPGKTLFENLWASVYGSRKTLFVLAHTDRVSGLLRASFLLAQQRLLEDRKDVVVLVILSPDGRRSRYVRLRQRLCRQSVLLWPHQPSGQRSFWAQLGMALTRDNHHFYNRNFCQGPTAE
Experiment Description: HEK293-Blue-hTLR-9 cells assay
Run Parameters: HEK293-Blue-hTLR9 cells, ODN2006 stimulation, 20 hrs, SEAP reporter; read-out: HEK/hTLR9 IC50
Measured Attribute: IC50 (nM)

molecule="CO[C@@H]1CN(c2nc(C)cc(N3CCN4[C@@H](C3)CN(c3ccc(C#N)c5ncccc35)C[C@H]4C)n2)C[C@H]1N [Example 45]" observed=81
molecule="C[C@@H]1CN(c2ccc(C#N)c3ncccc23)C[C@@H]2CN(CCc3ccc(N4C[C@@H](N)[C@H](F)C4)nc3)CCN21 [Example 18]" observed=65
molecule="C[C@@H]1CN(c2ccc(C#N)c3ncccc23)C[C@@H]2CN(CCc3cccc(N4CCN[C@@H](C)C4)n3)CCN21 [Example 21]" observed=56

(1) CO[C@@H]1CN(c2ccc(CCN3CCN4[C@@H](C3)CN(c3ccc(C#N)n5nccc35)C[C@H]4C)cc2)C[C@H]1N [Example 68]
(2) Cc1cnc(N2CCN3[C@@H](C2)CN(c2ccc(C#N)c4ncccc24)C[C@H]3C)nc1N1CCNCC1 [Example 43]
(3) C[C@H]1CN(c2ccc(C#N)c3ncccc23)C[C@@H]2CN(c3ccc([C@@H]4CNCCO4)cc3)CCN21 [Example 125]
IN: Put the items in order so that reported IC50 rises from first to last. Present the labels in the sequence the task asks for.
OUT: 1, 2, 3

###

Target Under Test: human TLR7 (Homo sapiens)
Construct: host or cells: HEK293 (HEK-Blue hTLR7)
Sequence (Q9NYK1 27-1049): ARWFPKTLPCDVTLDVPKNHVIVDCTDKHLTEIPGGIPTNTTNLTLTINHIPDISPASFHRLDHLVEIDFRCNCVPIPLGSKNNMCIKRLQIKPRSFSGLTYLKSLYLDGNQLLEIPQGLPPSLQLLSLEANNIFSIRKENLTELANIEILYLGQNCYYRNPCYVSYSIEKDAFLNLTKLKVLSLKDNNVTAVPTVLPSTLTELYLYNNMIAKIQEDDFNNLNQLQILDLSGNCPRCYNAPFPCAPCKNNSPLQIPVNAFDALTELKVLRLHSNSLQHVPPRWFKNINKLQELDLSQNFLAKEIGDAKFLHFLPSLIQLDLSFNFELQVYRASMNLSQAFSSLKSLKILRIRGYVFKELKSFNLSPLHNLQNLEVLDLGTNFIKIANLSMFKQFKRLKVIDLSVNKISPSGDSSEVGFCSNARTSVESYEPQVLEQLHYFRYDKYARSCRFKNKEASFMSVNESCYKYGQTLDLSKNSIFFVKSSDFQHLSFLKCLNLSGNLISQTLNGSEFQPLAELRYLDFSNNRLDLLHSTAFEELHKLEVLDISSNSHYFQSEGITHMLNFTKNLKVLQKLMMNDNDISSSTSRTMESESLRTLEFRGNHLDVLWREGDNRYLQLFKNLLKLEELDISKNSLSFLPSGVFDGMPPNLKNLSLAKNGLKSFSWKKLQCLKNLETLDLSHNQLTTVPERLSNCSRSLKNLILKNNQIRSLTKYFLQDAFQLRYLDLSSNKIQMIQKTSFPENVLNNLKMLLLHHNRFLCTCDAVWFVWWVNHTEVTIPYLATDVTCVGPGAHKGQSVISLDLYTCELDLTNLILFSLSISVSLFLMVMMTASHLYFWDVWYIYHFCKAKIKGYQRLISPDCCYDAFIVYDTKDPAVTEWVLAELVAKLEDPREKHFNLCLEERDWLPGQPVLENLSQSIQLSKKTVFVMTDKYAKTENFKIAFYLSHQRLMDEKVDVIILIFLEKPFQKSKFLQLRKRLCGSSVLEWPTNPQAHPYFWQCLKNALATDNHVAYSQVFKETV
Experiment Description: HEK293-Blue-hTLR-7 cells assay
Assay type: cell-based
Run Parameters: HEK293-Blue-hTLR7 cells, R848 stimulation, 20 hrs, SEAP reporter; read-out: HEK/hTLR7 IC50
Measured Attribute: IC50 (nM)

(a) C[C@@H]1CN(c2ccc(C#N)c3ncccc23)C[C@@H]2CN(Cc3ccc(N4CCNCC4)nc3)CCN21 [Example 8]
(b) [2H]c1ccc2c(N3C[C@@H]4CN(c5ncc(N6C[C@@H]7C[C@H]6CN7)cc5C)CCN4[C@H](C)C3)ccc(C#N)c2n1 [Example 95]
IN: Between the two listed entries a and b , which has its IC50 at the higher number? Write down the label attached to your selection.
OUT: a

(1) [2H]c1ccc2c(N3C[C@@H]4CN(Cc5ccc(N6CC7CNCC(C6)O7)nc5C)CCN4[C@H](C)C3)ccc(C#N)c2n1 [Example 83]
(2) C[C@@H]1CN(c2ccc(C#N)c3ncccc23)C[C@@H]2CN(c3ccnc(N4C[C@@H](F)[C@@H](N)C4)c3)CCN21 [Example 40]
(3) C[C@H]1CN(c2ccc(C#N)c3ncccc23)C[C@@H]2CN(c3ccc([C@@H]4CNCCO4)cc3)CCN21 [Example 125]
(4) C[C@@H]1CN(c2ccc(C#N)c3ncccc23)C[C@@H]2CN(Cc3cccc4c3CNCC4)CCN21 [Example 71]
IN: Please put the entries in order of rising IC50. Output spec: labels arranged per the requested ranking.
OUT: 3, 2, 1, 4

###

Target Under Test: human TLR9 (Homo sapiens)
Experiment Description: HEK293-Blue-hTLR-9 cells assay
Run Parameters: HEK293-Blue-hTLR9 cells, ODN2006 stimulation, 20 hrs, SEAP reporter; read-out: HEK/hTLR9 IC50
pIC50: −log10 of the molar value.
Measured Attribute: pIC50

(P) [2H]c1ccc2c(N3C[C@@H]4CN(Cc5nc(N6CCNCC6)ccc5C)CCN4[C@H](C)C3)ccc(C#N)c2n1
(Q) C[C@@H]1CN(c2ccc(C#N)c3ncccc23)C[C@@H]2CN(CCc3ccc(N4CC5(CNCCO5)C4)cc3)CCN21
IN: Param pair: P , Q . Output: the one whose pIC50 is numerically greater. Indicate your choice by writing its label.
OUT: P

(I) C[C@@H]1CN(c2ccc(C#N)c3ncccc23)C[C@@H]2CN(Cc3ccc(N4CCCNCC4)nc3)CCN21
(II) C[C@@H]1CN(c2ccc(C#N)c3ncccc23)C[C@@H]2CN(c3nccc4c3CCNC4)CCN21
IN: // max by pIC50 over [ I , II ] Let me know the label of the one you choose.
OUT: I

(I) C[C@@H]1CN(c2ccc(C#N)c3ncccc23)C[C@@H]2CN(c3nccc(N4CC(N)C4)n3)CCN21
(II) C[C@@H]1CN(c2ccc(C#N)c3ncccc23)C[C@@H]2CN(c3ccnc(N4CC(N)C4)c3)CCN21
IN: Returns: the label, I or II , whose recorded pIC50 is the lower number. State the label of the item chosen.
OUT: I
(I: 7.02, II: 7.35)

(1) C[C@@H]1CN(c2ccc(C#N)c3ncccc23)C[C@@H]2CN(CCc3ccc(N4CC5(CN(C)C5)C4)nc3)CCN21
(2) [2H]c1ccc2c(N3C[C@@H]4CN(c5ccc([C@@H]6CNCCO6)cc5)CCN4[C@@H](C)C3)ccc(C#N)c2n1
(3) [2H]c1ccc2c(N3C[C@@H]4CN(c5ncc(N6CC7(CC(N)C7)C6)cc5C)CCN4[C@H](C)C3)ccc(C#N)c2n1
IN: List from greatest to least pIC50. I would appreciate it if you listed the labels in the requested order.
OUT: 1, 3, 2

(I) C[C@@H]1CN(c2ccc(C#N)c3ncccc23)C[C@@H]2CN(CCc3ccc(N4C[C@@H](N)[C@@H](F)C4)cn3)CCN21
(II) C[C@@H]1CN(c2ccc(C#N)c3ncccc23)C[C@H]2CN(c3cccc4c3CCNC4)CCN21 (relative stereo)
IN: Task for the reader: decide whether I or II has the larger pIC50. Give the label of your selection.
OUT: I

(a) [2H]c1ccc2c(N3C[C@@H]4CN(CCc5ccc(N6CC7(CN(C)C7)C6)nc5)CCN4[C@H](C)C3)ccc(C#N)c2n1
(b) C[C@@H]1CN(c2ccc(C#N)n3ncc(F)c23)C[C@@H]2CN(CCc3ccc(N4C[C@@H](N)[C@@H](F)C4)nc3)CCN21
IN: // which entry has the larger pIC50 value, a or b ? Field: selected label. Fill in the label of the entry you choose.
OUT: a
(a: 7.49, b: 7.19)
